- targetSystem: T1, CTNI quality control recombinant protein (PK2-CTNI-1, 170120, produced by the applicant) (human, UniProt P19429 2-210, limits assumed)
- T1 construct: also called cardiac troponin I
- T1 sequence (P19429 2-210 limits assumed): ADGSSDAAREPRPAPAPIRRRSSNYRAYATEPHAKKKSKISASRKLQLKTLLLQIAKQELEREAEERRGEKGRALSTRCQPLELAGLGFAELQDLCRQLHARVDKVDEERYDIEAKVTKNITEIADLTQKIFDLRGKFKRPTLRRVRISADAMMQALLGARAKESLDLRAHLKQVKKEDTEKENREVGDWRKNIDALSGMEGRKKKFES
- procedureSummary: AMC sensor kinetics, antibody captured, cTnI analyte
Overview of reported pKd across a group of binders:
Scale: pKd equals -log10([C]), with [C] in mol/L.

Sample records with pKd:
[
  {
    "binder": "Mutation 1-48 (antibody, V domains shown, built as for Mutation 1) VH: EVQLQQSGAELVKPGASVKLSCTASGFNIKDYFMHWMKQRTEQGLDWIGRIDPEDGETRYAPEFQGKATITADTSSNTAYLQLSTLTSEDTAVYYCARYYSSYIPFVYWGQGTLVTASA VL: DVVMTQTPLSLSVSLGDQASISCRSSQSIIYSNRHTYLHWYLQKPGQSPKLLIFQISNRFSGVPDRFSGSGSGTDFTLKINRVEAEDLGVYFCSQSTHLPYTFGSGTKLEIKR",
    "pKd": 9.02
  },
  {
    "binder": "Mutation 1-27 (antibody, V domains shown, built as for Mutation 1) VH: EVQLQQSGAELVKPGASVKLSCTASGFNIKDYYMHWMKQRTEQGLDWIGRIDPEDAETRYAPEFQGKATITADTSSNTAYLQLSTLTSEDTAVYYCARYYSSYIPFVYWGQGTLVTASA VL: DVVMTQTPLSLSVSLGDQASISCRSSQSLIYSNRHTYLHWYLQKPGQSPKLLIFQISNRFSGVPDRFSGSGSGTDFTLKINRVEAEDLGVYFCSQSTHIPYTFGSGTKLEIKR",
    "pKd": 9.07
  },
  {
    "binder": "Mutation 1-49 (antibody, V domains shown, built as for Mutation 1) VH: EVQLQQSGAELVKPGASVKLSCTASGFNIKDYYMHWMKQRTEQGLDWIGRIDPEDAETRYAPEFQGKATITADTSSNTAYLQLSTLTSEDTAVYYCARYYSSYLPFVYWGQGTLVTASA VL: DVVMTQTPLSLSVSLGDQASISCRSSQSILYSNRHTYLHWYLQKPGQSPKLLIFQLSNRFSGVPDRFSGSGSGTDFTLKINRVEAEDLGVYFCSQSTHIPYTFGSGTKLEIKR",
    "pKd": 9.27
  },
  {
    "binder": "Mutation 1-44 (antibody, V domains shown, built as for Mutation 1) VH: EVQLQQSGAELVKPGASVKLSCTASGFNIKDYFMHWMKQRTEQGLDWIGRIDPEDAETKYAPEFQGKATITADTSSNTAYLQLSTLTSEDTAVYYCARYYSSYLPFVYWGQGTLVTASA VL: DVVMTQTPLSLSVSLGDQASISCRSSQSILYSNRHTYLHWYLQKPGQSPKLLIFQLSNRFSGVPDRFSGSGSGTDFTLKINRVEAEDLGVYFCSQSTHLPFTFGSGTKLEIKR",
    "pKd": 9.06
  },
  {
    "binder": "Mutation 1-17 (antibody, V domains shown, built as for Mutation 1) VH: EVQLQQSGAELVKPGASVKLSCTASGFNLKDYYMHWMKQRTEQGLDWIGRIDPEDAETRYAPEFQGKATITADTSSNTAYLQLSTLTSEDTAVYYCARYYSSYLPFVYWGQGTLVTASA VL: DVVMTQTPLSLSVSLGDQASISCRSSQSIIYSNRHTYLHWYLQKPGQSPKLLIFQLSNRFSGVPDRFSGSGSGTDFTLKINRVEAEDLGVYFCSQSTHIPYTFGSGTKLEIKR",
    "pKd": 9.14
  }
]

Prompt: Report pKd for Mutation 1-30 (antibody, V domains shown, built as for Mutation 1) VH: EVQLQQSGAELVKPGASVKLSCTASGFNIKDYFMHWMKQRTEQGLDWIGRIDPEDAETRYAPEFQGKATITADTSSNTAYLQLSTLTSEDTAVYYCARYYSSYLPFVYWGQGTLVTASA VL: DVVMTQTPLSLSVSLGDQASISCRSSQSIIYSNRHTYLHWYLQKPGQSPKLLIFQLSNRFSGVPDRFSGSGSGTDFTLKINRVEAEDLGVYFCSQSTHIPFTFGSGTKLEIKR please.
Response: 9.17

Prompt: Report pKd for Mutation 1-8 (antibody, V domains shown, built as for Mutation 1) VH: EVQLQQSGAELVKPGASVKLSCTASGFNLKDYFMHWMKQRTEQGLDWIGRIDPEDGETRYAPEFQGKATITADTSSNTAYLQLSTLTSEDTAVYYCARYYSSYLPFVYWGQGTLVTASA VL: DVVMTQTPLSLSVSLGDQASISCRSSQSLIYSNRHTYLHWYLQKPGQSPKLLIFQLSNRFSGVPDRFSGSGSGTDFTLKINRVEAEDLGVYFCSQSTHLPFTFGSGTKLEIKR please.
Response: 9.52

Prompt: Report pKd for Mutation 1-11 (antibody, V domains shown, built as for Mutation 1) VH: EVQLQQSGAELVKPGASVKLSCTASGFNIKDYYMHWMKQRTEQGLDWIGRIDPEDAETKYAPEFQGKATITADTSSNTAYLQLSTLTSEDTAVYYCARYYSSYVPFVYWGQGTLVTASA VL: DVVMTQTPLSLSVSLGDQASISCRSSQSILYSNRHTYLHWYLQKPGQSPKLLIFQVSNRFSGVPDRFSGSGSGTDFTLKINRVEAEDLGVYFCSQSTHIPFTFGSGTKLEIKR please.
Response: 9.22

Prompt: Report pKd for Mutation 1-18 (antibody, V domains shown, built as for Mutation 1) VH: EVQLQQSGAELVKPGASVKLSCTASGFNIKDYFMHWMKQRTEQGLDWIGRIDPEDAETKYAPEFQGKATITADTSSNTAYLQLSTLTSEDTAVYYCARYYSSYIPFVYWGQGTLVTASA VL: DVVMTQTPLSLSVSLGDQASISCRSSQSILYSNRHTYLHWYLQKPGQSPKLLIFQISNRFSGVPDRFSGSGSGTDFTLKINRVEAEDLGVYFCSQSTHLPFTFGSGTKLEIKR please.
Response: 9.17

Prompt: Report pKd for Mutation 1-45 (antibody, V domains shown, built as for Mutation 1) VH: EVQLQQSGAELVKPGASVKLSCTASGFNIKDYYMHWMKQRTEQGLDWIGRIDPEDGETKYAPEFQGKATITADTSSNTAYLQLSTLTSEDTAVYYCARYYSSYVPFVYWGQGTLVTASA VL: DVVMTQTPLSLSVSLGDQASISCRSSQSLIYSNRHTYLHWYLQKPGQSPKLLIFQVSNRFSGVPDRFSGSGSGTDFTLKINRVEAEDLGVYFCSQSTHIPFTFGSGTKLEIKR please.
Response: 9.77
